tgt: GLP-1R (Homo sapiens, UniProt P43220)
Construct: host or cells: GLP-1R CRE-bla CHO-K1 cells
Sequence (P43220 24-463): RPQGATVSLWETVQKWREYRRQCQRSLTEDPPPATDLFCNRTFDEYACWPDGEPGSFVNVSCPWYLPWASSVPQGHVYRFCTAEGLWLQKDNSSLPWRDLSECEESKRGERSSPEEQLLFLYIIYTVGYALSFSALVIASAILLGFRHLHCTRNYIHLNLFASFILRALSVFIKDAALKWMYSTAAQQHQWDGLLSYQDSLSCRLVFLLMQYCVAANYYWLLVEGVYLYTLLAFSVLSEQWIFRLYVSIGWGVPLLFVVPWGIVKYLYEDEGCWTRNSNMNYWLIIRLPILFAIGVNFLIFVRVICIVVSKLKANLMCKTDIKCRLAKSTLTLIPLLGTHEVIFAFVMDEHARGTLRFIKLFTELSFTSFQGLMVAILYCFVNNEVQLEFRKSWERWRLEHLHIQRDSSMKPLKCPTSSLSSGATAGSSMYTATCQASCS
Sequence (P01275 100-127 partner limits assumed): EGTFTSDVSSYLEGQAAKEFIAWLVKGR
assay.procedure: EC20 GLP-1(9-36) PAM cAMP assay: dose response of compound in the presence of fixed concentration of GLP-1(9-36)
Assay type: cell-based
study.conditions: dose response of compound in presence of fixed concentration of GLP-1(9-36), GLP-1R CRE-bla CHO-K1 cells, read-out: EC20 GLP-1(9-36) PAM EC50
measured.quantity: EC50

CCCCCCNc1ccc(-c2cnc(-c3ccc(C[C@H](NC(=O)c4ccc(C(C)(C)C)cc4)C(=O)N[C@H](C)C(=O)O)cc3)nc2)cc1 = 0.8 to 2.5 µM
CCCCCCCOc1ccc(-c2cnc(-c3ccc(C[C@H](NC(=O)c4ccc(CCC)cc4)C(=O)N[C@H](C)C(=O)O)cc3)nc2)cc1 = 5 to 10 µM
CCCCCCCOc1ccc(-c2cnc(-c3ccc(C[C@H](NC(=O)c4ccc(C(C)(C)C)s4)C(=O)NC(C(=O)O)C(O)C4CCCO4)cc3)nc2)cc1 (stereo partly drawn) = 0.8 to 2.5 µM
CCCCCCCCc1ccc(-c2cnc(-c3ccc(C[C@H](NC(=O)c4ccc(C(C)(C)C)cc4)C(=O)NCCC(=O)O)cc3)nc2)cc1 = 0.8 to 2.5 µM
CCCCCCCOc1ccc(-c2cnc(-c3ccc(C[C@H](NC(=O)c4ccc(C(C)(C)C)s4)C(=O)NC(CCCC(=O)O)C(=O)O)cc3)nc2)cc1 (stereo partly drawn) = 0.8 to 2.5 µM
CC[C@H]1CC[C@H](c2ccc(-c3cnc(-c4ccc(C[C@H](NC(=O)c5cc6cc(OC)ccc6[nH]5)C(=O)N5CC(C(=O)O)C5)cc4)nc3)cc2)CC1 = < 0.8 µM

Data request: # input compound: CCCCCCCOc1ccc(-c2cnc(-c3ccc(CC(NC(=O)c4ccc(C(C)(C)C)s4)C(=O)NCCCCC(=O)O)cc3)nc2)cc1 (stereo not drawn) ; wanted: its EC50
Data returned: 0.8 to 2.5 µM

Data request: # input compound: "CCCCCCCOc1ccc(-c2cnc(-c3ccc(C[C@H](NC(=O)c4ccc(C(C)(C)C)cc4)C(=O)NCCC(=O)O)cc3)nc2)cc1CC" ; wanted: its EC50
Data returned: < 0.8 µM

Data request: # input compound: "CCCCCCCOc1ccc(-c2cnc(-c3ccc(C[C@H](NC(=O)c4ccc(C(C)(C)C)s4)C(=O)NCCCN4CCOCC4)cc3)nc2)cc1" ; wanted: its EC50
Data returned: 2.5 to 5 µM

Data request: # input compound: "CCCCCCCOc1ccc(-c2cnc(-c3ccc(C[C@H](NC(=O)c4ccc(C(C)(C)C)s4)C(=O)NC)cc3)nc2)cc1" ; wanted: its EC50
Data returned: 2.5 to 5 µM

Data request: # input compound: "CCCCCCCOc1ccc(-c2cnc(-c3ccc(C[C@H](NC(=O)c4ccc(OC)cc4)C(=O)N4CC[C@H](C(=O)O)C4)cc3)nc2)cc1" ; wanted: its EC50
Data returned: 2.5 to 5 µM

Data request: # input compound: "CCCCCCCOc1ccc(-c2cnc(-c3ccc(C[C@H](NC(=O)c4ccc(C5(C)CC5)cc4)C(=O)N4CCC[C@H]4C(=O)O)cc3)nc2)cc1" ; wanted: its EC50
Data returned: 0.8 to 2.5 µM

---

Each item that follows carries a reported pEC50.
tgt: GLP-1R (Homo sapiens)
Construct: host or cells: GLP-1R CRE-bla CHO-K1 cells
assay.procedure: EC20 GLP-1(9-36) PAM cAMP assay: dose response of compound in the presence of fixed concentration of GLP-1(9-36)
Type: cell-based
study.conditions: dose response of compound in presence of fixed concentration of GLP-1(9-36), GLP-1R CRE-bla CHO-K1 cells, read-out: EC20 GLP-1(9-36) PAM EC50
Excerpt: EC20 GLP-1(9-36) PAM cAMP Assay: Dose Response of Compound in the Presence of Fixed Concentration of GLP-1 (9-36). […]
pEC50: −log10 of the molar value.

Consider the reported pEC50 for these compounds:
CCCCCCCOc1ccc(-c2cnc(-c3ccc(C[C@H](NC(=O)c4ccc(C(C)(C)C)cc4)C(=O)NCCC(=O)O)cc3)nc2)cc1F = 5.30 to 5.60
CCCOc1ccc(-c2cnc(-c3ccc(C[C@H](NC(=O)c4ccc(C(C)(C)C)s4)C(=O)N[C@H](C)C(=O)O)cc3)nc2)cc1C = 5.60 to 6.10
CCCCCCc1noc(-c2cnc(-c3ccc(C[C@H](NC(=O)c4ccc(C(C)(C)C)cc4)C(=O)NCCC(=O)O)cc3)nc2)n1 = 5.00 to 5.30
CCCCCCCOc1ccc(-c2cnc(-c3ccc(C[C@H](NC(=O)c4ccc(C(C)(C)C)s4)C(=O)NCCCN4CCN(C)CC4)cc3)nc2)cc1 = 5.30 to 5.60
Cc1cc(C)cc(-c2cnc(-c3ccc(C[C@H](NC(=O)c4ccc(C(C)(C)C)s4)C(=O)N[C@H](C)C(=O)O)cc3)nc2)c1 = 5.00 to 5.30

Data request: # input compound: "CCCCCCCOc1ccc(-c2cnc(-c3ccc(C[C@H](NC(=O)c4ccc(C(C)(C)C)s4)C(=O)N[C@@H](CC(=O)N(C)C)C(=O)O)cc3)nc2)cc1" ; wanted: its pEC50
Data returned: > 6.10

Data request: # input compound: CCCCCCCOc1ccc(-c2cnc(-c3ccc(C[C@H](NC(=O)c4ccc(C(C)(C)C)s4)C(=O)NC(CCCC)C(=O)O)cc3)nc2)cc1 (some centres unmarked) ; wanted: its pEC50
Data returned: > 6.10

Data request: # input compound: "CC[C@H]1CC[C@H](c2ccc(-c3cnc(-c4ccc(C[C@H](NC(=O)c5ccc(C(C)(C)C)nc5)C(=O)N5CC(C(=O)O)C5)cc4)nc3)cc2)CC1" ; wanted: its pEC50
Data returned: > 6.10

Data request: # input compound: "CC(C)Cc1ccc(-c2cnc(-c3ccc(C[C@H](NC(=O)c4ccc(C(C)(C)C)s4)C(=O)N[C@H](C)C(=O)O)cc3)nc2)cc1" ; wanted: its pEC50
Data returned: 5.30 to 5.60

---

tgt: GLP-1R (Homo sapiens)
Construct: host or cells: GLP-1R CRE-bla CHO-K1 cells
assay.procedure: EC20 GLP-1(9-36) PAM cAMP assay: dose response of compound in the presence of fixed concentration of GLP-1(9-36)
Type: cell-based
study.conditions: dose response of compound in presence of fixed concentration of GLP-1(9-36), GLP-1R CRE-bla CHO-K1 cells, read-out: EC20 GLP-1(9-36) PAM EC50
Each item that follows carries a reported EC50.

Consider the reported EC50 for these compounds:
CCCCCCCOc1ccc(-c2cnc(-c3ccc(CC(NC(=O)c4ccc(C(C)(C)C)s4)C(=O)N4CCC(C(=O)O)C4)cc3)nc2)cc1 (stereo not drawn) [Compound 625] = < 800 nM
CCCCCCCOc1ccc(-c2cnc(-c3ccc(C[C@H](NC(=O)c4ccc(C(C)(C)C)cc4)C(=O)N[C@@H](CC(=O)OCc4ccccc4)C(=O)O)cc3)nc2)cc1 [Compound 502] = < 800 nM

--- query ---
Data request: Lab request: please report EC50 under test system GLP-1R (Homo sapiens) for CC(C)(C)c1ccc(C(=O)N[C@@H](Cc2ccc(-c3ncc(-c4ccc([C@H]5CC[C@@H](C)CC5)cc4)cn3)cc2)C(=O)N2CC(C(=O)O)C2)s1 [Compound 1177]
Data returned: < 800 nM

---

Each item that follows carries a reported EC50.
tgt: GLP-1R (Homo sapiens, UniProt P43220)
Construct: host or cells: GLP-1R CRE-bla CHO-K1 cells
assay.procedure: EC20 GLP-1(9-36) PAM cAMP assay: dose response of compound in the presence of fixed concentration of GLP-1(9-36)
Format: cell-based
study.conditions: dose response of compound in presence of fixed concentration of GLP-1(9-36), GLP-1R CRE-bla CHO-K1 cells, read-out: EC20 GLP-1(9-36) PAM EC50

CCCOc1ccc(-c2cnc(-c3ccc(C[C@H](NC(=O)c4ccc(C(C)(C)C)cc4)C(=O)N[C@H](C)C(=O)O)cc3)nc2)cc1 [Compound 722] = 800 to 2500 nM
CCCCCCCOc1ccc(-c2cnc(-c3ccc(C[C@H](NC(=O)c4ncc(C(C)C)s4)C(=O)O)cc3)nc2)cc1 [Compound 148] = 800 to 2500 nM

--- query ---
Data request: Lab request: please report EC50 under test system GLP-1R (Homo sapiens, UniProt P43220) for CC[C@H]1CC[C@H](c2ccc(-c3cnc(-c4ccc(C[C@H](NC(=O)c5ccc(C(C)(C)C)s5)C(=O)N5CC[C@H](C(=O)O)C5)cc4)nc3)cc2)CC1 [Compound 1137]
Data returned: < 800 nM

---

tgt: GLP-1R (Homo sapiens, UniProt P43220)
Construct: host or cells: GLP-1R CRE-bla CHO-K1 cells
assay.procedure: EC20 GLP-1(9-36) PAM cAMP assay: dose response of compound in the presence of fixed concentration of GLP-1(9-36)
Format: cell-based
study.conditions: dose response of compound in presence of fixed concentration of GLP-1(9-36), GLP-1R CRE-bla CHO-K1 cells, read-out: EC20 GLP-1(9-36) PAM EC50
measured.quantity: EC50

Consider the reported EC50 for these compounds:
CCCCCCCOc1ccc(-c2cnc(-c3ccc(C[C@H](NC(=O)c4ccc(C(C)(C)C)s4)C(=O)N[C@@H](Cn4cncn4)C(=O)O)cc3)nc2)cc1 [Compound 639] = < 800 nM
CCCCCCCOc1ccc(-c2cnc(-c3ccc(C[C@H](NC(=O)c4ccc(C(C)(C)C)s4)C(=O)NC(C(=O)O)C(O)c4ccc(Cl)cc4)cc3)nc2)cc1 (stereo partly drawn) [Compound 901] = 800 to 2500 nM

--- query ---
Data request: # input compound: CCCCCCCOc1ccc(-c2cnc(-c3ccc(C[C@H](NC(=O)c4ccc(C(C)(C)C)cc4)C(=O)N4CC=CC4C(=O)O)cc3)nc2)cc1 (stereo partly drawn) [Compound 563] ; wanted: its EC50
Data returned: < 800 nM

Where do these numbers come from? They come from patent US10034886B2.
